The reported numbers originate from paper PMC4336329.

- SYSTEM: human ether-à-go-go-related gene (hERG) potassium channel (human);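 note: peak tail current of the secondary pulse compared with the same well before compound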
- Sequence (Q12809 whole entry, looked up): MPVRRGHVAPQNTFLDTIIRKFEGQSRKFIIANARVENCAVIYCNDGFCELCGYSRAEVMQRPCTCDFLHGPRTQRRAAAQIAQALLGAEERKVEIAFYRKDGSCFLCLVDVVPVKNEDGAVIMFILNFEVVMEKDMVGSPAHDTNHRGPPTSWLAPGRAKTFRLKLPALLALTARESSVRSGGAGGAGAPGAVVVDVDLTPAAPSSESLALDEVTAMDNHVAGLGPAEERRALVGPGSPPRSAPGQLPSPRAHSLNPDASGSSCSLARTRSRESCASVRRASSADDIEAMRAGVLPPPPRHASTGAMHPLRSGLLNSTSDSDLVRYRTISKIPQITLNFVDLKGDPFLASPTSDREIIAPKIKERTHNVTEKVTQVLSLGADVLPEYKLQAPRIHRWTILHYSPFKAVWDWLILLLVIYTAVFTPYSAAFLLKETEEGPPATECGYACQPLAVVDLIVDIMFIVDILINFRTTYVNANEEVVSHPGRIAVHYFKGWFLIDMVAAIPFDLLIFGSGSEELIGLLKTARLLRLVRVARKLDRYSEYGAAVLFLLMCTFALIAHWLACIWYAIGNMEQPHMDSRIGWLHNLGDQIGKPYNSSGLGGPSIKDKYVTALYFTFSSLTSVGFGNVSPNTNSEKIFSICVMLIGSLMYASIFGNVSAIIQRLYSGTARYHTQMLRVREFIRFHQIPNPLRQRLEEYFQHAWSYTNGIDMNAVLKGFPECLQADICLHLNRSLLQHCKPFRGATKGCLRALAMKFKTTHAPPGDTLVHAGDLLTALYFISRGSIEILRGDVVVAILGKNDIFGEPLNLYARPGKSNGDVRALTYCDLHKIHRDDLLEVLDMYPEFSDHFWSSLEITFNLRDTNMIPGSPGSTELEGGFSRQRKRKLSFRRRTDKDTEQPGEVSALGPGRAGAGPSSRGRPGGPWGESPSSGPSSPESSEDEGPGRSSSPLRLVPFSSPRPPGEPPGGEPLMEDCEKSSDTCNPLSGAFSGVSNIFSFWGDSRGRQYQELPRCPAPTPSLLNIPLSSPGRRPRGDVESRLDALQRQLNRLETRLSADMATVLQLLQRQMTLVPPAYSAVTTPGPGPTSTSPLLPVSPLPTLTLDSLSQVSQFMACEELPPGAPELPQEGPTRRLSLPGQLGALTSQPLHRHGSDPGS
- PROTOCOL DESCRIPTION: primary screen, population patch clamp on CHO cells stably expressing hERG; higher = less effect of the substance
Out of some 310,000 compounds screened, about 14,000 (4.5%) showed an effect of 50% or more. The effect is printed as a negative number. Many of the other results were omitted from the sample, so strong results are more common in it than they were.
Please respond with reported hERG current change (%, negative = inhibition) at 10uM for every item in the list.
Numbers only, in %.

// solved cases for hERG current change (%, negative = inhibition) at 10uM follow
Value of hERG current change (%, negative = inhibition) at 10uM reported for the compound `CCCn1c(=O)c2c(nc3n2CCN3Cc2ccco2)n(C)c1=O` is -5.94

response.value for `Cc1cccc(Cn2c(=O)c3c(nc4n3CCCN4Cc3ccccc3)n(C)c2=O)c1` (field: hERG current change (%, negative = inhibition) at 10uM) = -38.8

hERG current change (%, negative = inhibition) at 10uM reported for this compound `O=C(CCS(=O)(=O)c1ccc2c(c1)NC(=O)CS2)NCCc1ccccc1` : 8.31

Measured hERG current change (%, negative = inhibition) at 10uM of `Cn1c(=O)n(Cc2ccccc2)c(=O)c2c1nc1n2CCN1Cc1ccco1` : -36.7

get_value(item= `CCCC1(CCC)C(=O)NC(=NCc2ccccc2)NC1=O` , readout=hERG current change (%, negative = inhibition) at 10uM) returns 12.7

Could I get hERG current change (%, negative = inhibition) at 10uM for every one of these entries?
1. Cc1cccc(Cn2c(=O)c3c(nc4n3CCN4Cc3ccco3)n(C)c2=O)c1
2. Cc1ccc(C)c(Cn2c(=O)c3c(nc4n3CCN4Cc3ccco3)n(C)c2=O)c1
3. O=C(CNC(=O)c1ccccc1Cl)OC1CCOC1=O (stereo not shown)
4. O=C(c1[nH]ncc1-c1cccc(Br)c1)C1CO1 (stereo not shown)

1. -52.2
2. -3.76
3. 13.5
4. 3.39

The recorded hERG current change (%, negative = inhibition) at 10uM for O=C(NC1CC2CCCC(C1)N2C(=O)Nc1ccccc1)c1ccncc1 (stereo not shown) is 0.052

###

- SYSTEM: human ether-à-go-go-related gene (hERG) potassium channel (human);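 note: peak tail current of the secondary pulse compared with the same well before compound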
- PROTOCOL DESCRIPTION: primary screen, population patch clamp on CHO cells stably expressing hERG; higher = less effect of the substance
The whole screen tested about 310,000 compounds, of which about 14,000 (4.5%) showed an effect of 50% or more. Effects have a minus sign here. This excerpt belongs to a sample that is enriched for strong results.
QUANTITY NAME: hERG current change (%, negative = inhibition) at 10uM
I'd appreciate it if you included the unit after the number.

Check out these entries, answers already filled in.
Form field hERG current change (%, negative = inhibition) at 10uM, entry `Cc1cc(NCCCN2CCOCC2)n2nc(C)c(-c3ccc(F)cc3)c2n1` : -31.1%

Item: `CC1CCN(CC(=O)Nc2ccccc2-c2ccccc2)CC1` | hERG current change (%, negative = inhibition) at 10uM: -25.1%

get_value(item= `CCCCOc1ccc(C(=O)Nc2ccc(N3CCN(C(=O)C(C)C)CC3)cc2)cc1` , readout=hERG current change (%, negative = inhibition) at 10uM) returns 6.91%

For record `Cl.O=C(CN1CCN(C2CCCCC2)CC1)Nc1ccccc1N1CCCCC1` the listed hERG current change (%, negative = inhibition) at 10uM is -66.2%

The recorded hERG current change (%, negative = inhibition) at 10uM for entry O=C(CN1C(=O)C2CCCCC2C1=O)Nc1ccccc1N1CCCC1 (stereo not shown) equals 1.43%

Sample `Cc1cc(NCc2ccccn2)n2nc(C)c(-c3ccc(Cl)cc3)c2n1` ; hERG current change (%, negative = inhibition) at 10uM observed: 14.2%

So for `Cl.O=C(CN1CCN(C2CCCCC2)CC1)Nc1cccc2ccccc12` , the logged hERG current change (%, negative = inhibition) at 10uM turned out to be -31.2%

Notebook: `Cl.O=C(CN1CCN(C2CCCCC2)CC1)Nc1ccccc1-c1ccccc1` , hERG current change (%, negative = inhibition) at 10uM read as -70.1%

Can you give me hERG current change (%, negative = inhibition) at 10uM for all of these, one by one?
1. Cc1cc(NCCN2CCOCC2)n2nc(C)c(-c3ccc(Cl)cc3)c2n1
2. CC12CCC(C/C1=N/O)C2(C)C (stereo not shown)

1. -50.2%
2. 6.85%
